Reported normalised cell viability by item:
Tested on: NCI-H1944;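 note: CTB read-out in 384-well plates, triplicate wells, NPI normalised per plate against 1 µM phenylarsine oxide (0) and 0.1% DMSO (1) controls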
experiment: normalised cell viability (NPI; 0 = phenylarsine oxide control, 1 = DMSO control) (fraction of DMSO control); NCI-H1944 is a non-small cell lung cancer line; higher = more viable cells (less compound toxicity)
conditionInfo: glucocorticoid arm: hydrocortisone 2.75 uM pre-treated 2 days and continued; compound 5 µM; 6 days
Where a name gives a salt, the structure may show the parent alone. The full ranking holds about 1,900 compounds; the median of “normalised cell viability (NPI; 0 = phenylarsine oxide control, 1 = DMSO control)” is about 1, and the lowest 2% start at about 0.039. The sample holds the lowest values, similar compounds and a random draw of the others, so the mix is not that of the screen.
Lab note: write the figure by itself, no unit.

{"columns": ["compound", "system", "reportedMetric", "recordedResult"],
 "data": [
  ["CC[C@@H]1SC2(CCN(C)CC2)NC1=O", "NCI-H1944", "normalised cell viability", 1.02],
  ["O=C1NCCc2[nH]c(-c3ccncc3)cc21", "NCI-H1944", "normalised cell viability", 0.145],
  ["CCCCCCCCCCCCCCCC(=O)NCC(COP(=O)([O-])OCC[N+](C)(C)C)OCC (racemic)", "NCI-H1944", "normalised cell viability", 1.11],
  ["COc1ccc(-c2ccc3ncc4c(c3c2)n(-c2ccc(N3CCNCC3)c(C(F)(F)F)c2)c(=O)n4C)cn1", "NCI-H1944", "normalised cell viability", 0.0016],
  ["CC(C)C[C@H](NC(=O)[C@H](O)[C@H](N)Cc1ccccc1)C(=O)O [Epibestatin hydrochloride]", "NCI-H1944", "normalised cell viability", 0.995],
  ["OC(CN1CCC(Cc2ccc(F)cc2)CC1)c1ccc(Cl)cc1 (stereo not given)", "NCI-H1944", "normalised cell viability", 0.971]
]}

Identify normalised cell viability associated with the compound Cc1[nH]c(=O)c(C#N)cc1-c1ccncc1
1.05

Please give the documented normalised cell viability of CCCCC(=O)OCC(=O)[C@]1(O)Cc2c(O)c3c(c(O)c2[C@@H](O[C@H]2C[C@H](NC(=O)C(F)(F)F)[C@H](O)[C@H](C)O2)C1)C(=O)c1c(OC)cccc1C3=O
0.982

Given the compound CC(C)(C)c1ccc(S(=O)(=O)/C=C/C#N)cc1 , write its reported normalised cell viability.
0.976

Hey, just so you know, these numbers are from the supplement of paper PMC8285479.
